Listing: IC50 of selected compounds
tested on: P. falciparum D6 strain (drug sensitive); test: In vitro antiplasmodial activity, SYBR Green I assay, D6 strain; assay type: cell-based, Plasmodium falciparum; conditions: Plasmodium falciparum, D6, 72 h, read-out: P. falciparum IC50 values, nM D6
Response body: numeric value in nM, unit text excluded.

Query string: Observed IC50 on P. falciparum D6 strain (drug sensitive) for `COc1ccc2c(=O)c(-c3ccc(-c4ccc(C(F)(F)F)cc4OC)cc3)c(C)[nH]c2c1` , please.
Result string: 3.08

# ---- query compound ----
Query string: What value of IC50 on P. falciparum D6 strain (drug sensitive) does `COc1cc2[nH]c(C)c(-c3ccc(-c4ccc(OC(F)(F)F)cc4)cc3)c(=O)c2cc1Cl` have?
Result string: 0.3
